- Test system: HOP-62 NSCLC
- measurement.protocol: NCI tumour cell line growth inhibition, 48 h
observed.property: TGI

Here is how some compounds turned out for TGI.
Cc1ccc(N=NN(C)C(=O)C(C)N)cc1 (stereo unspecified): > 100 µM
COc1ccc(/C=C2\CN(Cc3cn(CCNc4ccnc5cc(Cl)ccc45)nn3)C/C(=C\c3ccc(OC)c(OC)c3)C2=O)cc1OC: 26.2 µM

Challenge: Tell me reported TGI for COC(=O)C1C=NNC1C(=O)OC (stereo unspecified) , tested with HOP-62 NSCLC.
Response given: > 100 µM

Challenge: Next compound up: `CNS(=O)(=O)NN(C)S(=O)(=O)c1ccc2ccccc2c1`
Response given: > 100 µM

Challenge: Next compound up: `CCN(CC)c1ccc2cc(-c3nnc(-c4ccccc4O)o3)c(=O)oc2c1`
Response given: 18.5 µM

Challenge: Next compound up: `CN(C)S(=O)(=O)n1cnc(CO)c1`
Response given: > 100 µM

Challenge: Next compound up: `CC1(C)C(=O)/C=C\C(=O)C(C)(C)C(=O)/C=C\C(=O)C(C)(C)C(=O)/C=C\C(=O)C(C)(C)C(=O)/C=C\C1=O`
Response given: > 100 µM
